Test system: SF-268 CNS
Protocol: NCI tumour cell line growth inhibition, 48 h
# maps each entry to its TGI

Cn1ccc2c3c(=O)cc[nH]c3ccc21 :: > 100 µM
CNC(=O)/C(=C/c1ccc(OC)cc1)c1cc(OC)c(OC)c(OC)c1 :: > 84.7 µM
CC1(C)N([O-])[N+](=O)C1(Br)c1ccccc1 (stereo not given) :: > 100 µM
Oc1cc2c(cc1C(c1ccc3c(c1)OCO3)N1CCN(C(c3ccc4c(c3)OCO4)c3cc4c(cc3O)OCO4)CC1)OCO2 (stereo not given) :: 59.3 µM

Req: Look up and report measured TGI for this entry: CC1=NN(C(=O)CC(=O)Nc2ccc(Cl)cc2)C(=O)C1N=Nc1ccc(S(=O)(=O)c2ccc(N=NC3C(=O)N(C(=O)CC(=O)Nc4ccc(Cl)cc4)N=C3C)cc2)cc1 (stereo not given)
Resp: > 100 µM

Req: Look up TGI of C/C(=C(/C)c1cc[n+](C)cc1)c1cc[n+](C)cc1 and report it.
Resp: > 75 µM

Req: Check the records and state TGI for CCOc1ccc(NC(=O)c2cc3ccccc3cc2O)cc1
Resp: > 100 µM

Req: Tell us which TGI value is on record for CCOC(=O)CNC(=O)CNC(=O)CNC(=O)CNNc1c(OCc2ccccc2)c(=O)c1=O
Resp: > 100 µM

Req: Tell us which TGI value is on record for Cc1ccc2nc(-c3ccc(-c4nc5ccc(C)cc5o4)c(O)c3)oc2c1
Resp: > 100 µM

Req: # return recorded TGI for entry CCOC(=O)CON=c1c2ccccc2ccc2ccccc12
Resp: > 100 µM

Req: Identify measured TGI associated with CC(=O)c1sc2n(C)c(=O)c3ccccc3[n+]2c1C
Resp: > 100 µM

Req: Provide only the value of recorded TGI for CCC1(CC)C(=O)NN(C(=O)c2ccc(Cl)cc2)C1=O
Resp: > 100 µM

Req: Please give measured TGI of the following entry: O=C1[C@@H]2C(c3ccncc3)=NO[C@@H]2C(=O)N1c1ccc(Cc2ccc(N3C(=O)[C@H]4C(c5ccncc5)=NO[C@H]4C3=O)cc2)cc1
Resp: > 100 µM

Req: Note down TGI recorded for Cn1nc(S(N)(=O)=O)s/c1=N/S(=O)(=O)c1ccc(N)cc1
Resp: > 100 µM

====

Test system: SW-620 colon
Parameter call: string, one of TRUE = active, FALSE = inactive

CC(=O)N1N=C(c2ccc(Nc3nc(Nc4ccc(F)cc4)nc(Nc4ccc(Cl)cc4)n3)cc2)CC1c1ccc(N(C)C)cc1 (stereo not given) :: FALSE

--- query ---
Req: For CC(C)c1ccc(/C=N/N=C(N)N)cc1 , which call appears in the assay record?
Resp: FALSE

====

System: ACHN renal
Protocol: NCI tumour cell line growth inhibition, 48 h
TGI overview
Kindly answer with a numeric value in µM, unit omitted.

CC(=O)C(N=NC1CCC(S(=O)(=O)NB2N=CS2)CC1)C(=O)Nc1ccccc1C (stereo not given) :: 24.6
CC(=O)OC1CC2(O)C(CCC3(C)C(c4ccc(=O)oc4)CCC32O)C2(C)CCC(OC3OC(CO)C(O)C(O)C3O)C=C12 (stereo not given) :: 0.036

Req: Item CNc1cccc2c1C(C)C[C@]1(C)C(=O)Nc3ccccc3[C@H]21 (stereo not given in full) : provide TGI
Resp: 50.8

Req: Identify measured TGI associated with CC(=O)Oc1ccccc1C(=O)NCCC[Se]C#N
Resp: 4.3
